Biological target: BRD9 (Homo sapiens, UniProt Q9H8M2)
Sequence (Q9H8M2 1-597): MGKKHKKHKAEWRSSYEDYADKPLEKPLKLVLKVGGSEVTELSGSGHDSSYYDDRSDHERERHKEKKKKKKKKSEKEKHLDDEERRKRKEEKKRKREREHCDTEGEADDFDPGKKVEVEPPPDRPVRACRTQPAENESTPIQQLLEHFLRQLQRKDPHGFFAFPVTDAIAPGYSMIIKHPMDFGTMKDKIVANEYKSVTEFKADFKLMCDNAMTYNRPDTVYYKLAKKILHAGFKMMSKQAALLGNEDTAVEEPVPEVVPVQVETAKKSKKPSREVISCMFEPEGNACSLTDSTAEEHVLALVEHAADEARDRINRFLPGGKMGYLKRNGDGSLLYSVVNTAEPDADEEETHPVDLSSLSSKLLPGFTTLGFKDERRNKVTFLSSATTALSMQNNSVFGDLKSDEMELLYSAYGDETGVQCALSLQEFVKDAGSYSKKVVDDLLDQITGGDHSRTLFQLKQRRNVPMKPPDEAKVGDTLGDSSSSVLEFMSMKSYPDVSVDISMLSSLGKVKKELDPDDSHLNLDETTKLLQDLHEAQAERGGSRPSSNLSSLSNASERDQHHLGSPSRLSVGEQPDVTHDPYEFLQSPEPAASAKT
Assay: Degradation of BRD9 (IF), immunofluorescence in MV4-11 cells, 24 hours (Assay Protocol 2)
Format: cell-based
Set-up: A suspension of MV4-11 cells (ATCC CRL-9591) was prepared; host or cells: MV4-11
Conditions: MV4-11, Assay protocol 2; BRD9 degradation; read-out: Dmax
Below, each of the compounds is paired with its reported Dmax value.

Input line: Form field: reported Dmax of COc1cc(-c2cn(C)c(=O)c(C)c2C)cc(OC)c1CN1CCC2(CC1)CCN(c1ccc3c(c1)[C@H](C)N(C(=O)/C(C#N)=C/C(C)(C)C)CC3)C2 (single isomer, unassigned)
Output line: 40 to 70%

Origin of the recorded values: patent US20260092061A1
